These measurements were taken from patent US20070299072A1.

Reported inhibition at 1 µM values follow for various molecules
- tgt: Kv1.5 (Homo sapiens, UniProt P22460)
- Construct: expressed in transfected cells; host or cells: HEK or LTK- cells
- Sequence (P22460 whole entry): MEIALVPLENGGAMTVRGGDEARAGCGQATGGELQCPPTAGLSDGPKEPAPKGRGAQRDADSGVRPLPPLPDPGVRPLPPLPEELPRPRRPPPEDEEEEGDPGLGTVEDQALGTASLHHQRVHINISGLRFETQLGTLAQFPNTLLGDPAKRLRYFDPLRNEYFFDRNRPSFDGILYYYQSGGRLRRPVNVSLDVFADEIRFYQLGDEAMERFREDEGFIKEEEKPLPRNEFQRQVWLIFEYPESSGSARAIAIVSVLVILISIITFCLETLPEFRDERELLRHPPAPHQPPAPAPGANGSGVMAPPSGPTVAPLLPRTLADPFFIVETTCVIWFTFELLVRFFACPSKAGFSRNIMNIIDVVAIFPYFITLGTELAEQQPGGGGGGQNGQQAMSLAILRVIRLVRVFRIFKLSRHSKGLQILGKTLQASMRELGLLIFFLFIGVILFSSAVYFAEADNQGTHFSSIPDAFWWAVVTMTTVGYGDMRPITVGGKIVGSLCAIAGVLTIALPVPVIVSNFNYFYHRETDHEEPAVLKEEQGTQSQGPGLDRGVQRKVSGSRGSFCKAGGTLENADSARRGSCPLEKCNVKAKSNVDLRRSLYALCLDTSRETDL
- test-name: Kv1.5 Patch Clamp EP (whole cell patch clamp; single point at 1 μM and IC50)
- Type: cell-based
- setup-conditions: single point at 1.0 μM, Kv1.5 stably over expressed in HEK or LTK- cells
measurement-type: inhibition at 1 µM (%)

{"molecule": "COc1ccc(CCN2C(=O)C3(CCN(C(=O)NC(C)C)CC3)N(C)C2c2ccc(C3CC3)cc2)cc1 (stereo not drawn)", "quantitative-readout": 92}
{"molecule": "CCN(CC)c1ccc(C2N(CCc3ccc(OC)cc3)C(=O)C3(CCN(C(N)=O)CC3)N2C)cc1 (stereo not drawn)", "quantitative-readout": 87}
{"molecule": "COc1ccc(CCN2C(=O)C3(CCN(C(=O)OC(C)C)CC3)N(C)C2c2ccc(C3CC3)cc2)cc1 (stereo not drawn)", "quantitative-readout": 92}
{"molecule": "CCN(CC)C(=O)N1CCC2(CC1)C(=O)N(CCc1ccc(OC)cc1)C(c1ccc(C3CC3)cc1)N2C (stereo not drawn)", "quantitative-readout": 97}
{"molecule": "COc1ccc(CCN2C(=O)C3(CCN(C(=O)n4ccnc4)CC3)N(C)C2c2ccc(C3CC3)cc2)cc1 (stereo not drawn)", "quantitative-readout": 87}
{"molecule": "CN1C(c2ccc(C3CC3)cc2)N(CCCc2ccccc2)C(=O)C12CCN(C(=O)C1CC1)CC2 (stereo not drawn)", "quantitative-readout": 77}
{"molecule": "COc1ccc(CCN2C(=O)C3(CCN(C(N)=O)CC3)N(C)C2c2ccc(C3CC3)cc2)cc1 (stereo not drawn)", "quantitative-readout": 87}
{"molecule": "COC(=O)N1CCC2(CC1)NC(c1ccc(C3CC3)cc1)N(CCc1ccc(OC)cc1)C2=O (stereo not drawn)", "quantitative-readout": 94}
{"molecule": "COc1ccc(CCN2C(=O)C3(CCN(C(=O)NN)CC3)N(C)C2c2ccc(C3CC3)cc2)cc1 (stereo not drawn)", "quantitative-readout": 74}
{"molecule": "CCS(=O)(=O)N1CCC2(CC1)NC(c1ccc(C(C)(C)C)cc1)N(CCc1ccc(OC)cc1)C2=O (stereo not drawn)", "quantitative-readout": 12}
{"molecule": "CCOC(=O)N1CCC2(CC1)C(=O)N(CCc1ccc(OC)cc1)C(c1ccc(C3CC3)cc1)N2C (stereo not drawn)", "quantitative-readout": 96}
{"molecule": "CC(C)NC(=O)N1CCC2(CC1)C(=O)N(CCCc1ccccc1)C(c1ccc(C3CC3)cc1)N2C (stereo not drawn)", "quantitative-readout": 89}
{"molecule": "COc1ccc(CCN2C(=O)C3(CCNCC3)N(C)C2c2ccc(C3CC3)cc2)cc1 (stereo not drawn)", "quantitative-readout": 2}
{"molecule": "COc1ccc(CCN2C(=O)C3(CCN(C(=O)N4CCN(C)CC4)CC3)N(C)C2c2ccc(C3CC3)cc2)cc1 (stereo not drawn)", "quantitative-readout": 51}
{"molecule": "COc1ccc(CCN2C(=O)C3(CCN(C(N)=O)CC3)N(C)C2c2ccc(OC)cc2)cc1 (stereo not drawn)", "quantitative-readout": 16}
